target: ObgE (Escherichia coli, UniProt P42641)
Sequence (P42641 whole entry): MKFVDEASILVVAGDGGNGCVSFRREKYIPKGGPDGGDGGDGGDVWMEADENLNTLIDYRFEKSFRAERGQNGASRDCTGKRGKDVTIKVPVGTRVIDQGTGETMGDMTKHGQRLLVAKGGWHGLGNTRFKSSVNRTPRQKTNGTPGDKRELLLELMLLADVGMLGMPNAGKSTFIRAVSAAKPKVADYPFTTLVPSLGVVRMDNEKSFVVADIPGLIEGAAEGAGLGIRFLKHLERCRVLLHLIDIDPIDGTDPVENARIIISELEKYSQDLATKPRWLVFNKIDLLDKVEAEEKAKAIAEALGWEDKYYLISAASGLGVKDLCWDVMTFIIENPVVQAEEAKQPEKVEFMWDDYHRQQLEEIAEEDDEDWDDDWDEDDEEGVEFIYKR
measured_endpoint: Ki (µM)

compound_smiles=Nc1nc2c(ncn2[C@@H]2O[C@H](COP(=O)(O)OP(=O)(O)O)[C@@H](O)[C@H]2O)c(=O)[nH]1 value=1.6
